molecular target: Melanocortin receptor 3 (Homo sapiens, UniProt P41968); assay: Displacement of [125I]NDP-alpha-MSH from human MC3R expressed in HEK293 cells by competitive binding assay
Sequence (P41968 whole entry): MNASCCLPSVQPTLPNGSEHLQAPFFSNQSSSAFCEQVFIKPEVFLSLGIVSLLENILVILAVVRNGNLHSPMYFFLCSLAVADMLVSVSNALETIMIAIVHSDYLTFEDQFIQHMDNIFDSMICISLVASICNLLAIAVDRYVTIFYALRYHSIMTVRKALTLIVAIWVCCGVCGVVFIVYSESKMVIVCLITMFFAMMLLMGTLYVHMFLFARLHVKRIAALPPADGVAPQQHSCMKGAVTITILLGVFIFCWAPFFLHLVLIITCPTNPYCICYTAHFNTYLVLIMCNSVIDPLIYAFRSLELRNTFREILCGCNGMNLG
pIC50: −log10 of the molar value.
Entries and their pIC50
assayMetric: pIC50

[
  {
    "smilesStr": "CCCC[C@H](NC(C)=O)C(=O)N[C@H]1CSCc2ccccc2CSC(C)(C)[C@@H](C(N)=O)NC(=O)[C@H](Cc2c[nH]c3ccccc23)NC(=O)[C@H](CCCNC(=N)N)NC(=O)[C@@H](Cc2ccccc2)NC(=O)[C@H](Cc2c[nH]cn2)NC1=O",
    "assayMetric": "pIC50",
    "numericValue": 7.13
  },
  {
    "smilesStr": "CCCC[C@H](NC(C)=O)C(=O)N[C@H]1CSCc2cccc(c2)CSC(C)(C)[C@@H](C(N)=O)NC(=O)[C@H](Cc2c[nH]c3ccccc23)NC(=O)[C@H](CCCNC(=N)N)NC(=O)[C@@H](Cc2ccccc2)NC(=O)[C@H](Cc2c[nH]cn2)NC1=O",
    "assayMetric": "pIC50",
    "numericValue": 7.15
  },
  {
    "smilesStr": "CCCC[C@H](NC(C)=O)C(=O)N[C@@H]1C(=O)N[C@@H](Cc2c[nH]cn2)C(=O)N[C@H](Cc2ccccc2)C(=O)N[C@@H](CCCNC(=N)N)C(=O)N[C@@H](Cc2c[nH]c3ccccc23)C(=O)N[C@H](C(N)=O)C(C)(C)SCc2cccc(c2)CSC1(C)C",
    "assayMetric": "pIC50",
    "numericValue": 6.35
  },
  {
    "smilesStr": "CCCC[C@H](NC(C)=O)C(=O)N[C@@H]1C(=O)N[C@@H](Cc2c[nH]cn2)C(=O)N[C@H](Cc2ccccc2)C(=O)N[C@@H](CCCNC(=N)N)C(=O)N[C@@H](Cc2c[nH]c3ccccc23)C(=O)N[C@H](C(N)=O)C(C)(C)SCc2ccccc2CSC1(C)C",
    "assayMetric": "pIC50",
    "numericValue": 6.34
  }
]

====

In this section, each of the compounds is paired with its reported pEC50.
molecular target: Melanocortin receptor 4 (Homo sapiens, UniProt P32245); experiment: Agonist activity at human MC4R expressed in HEK293 cells assessed as maximal intracellular cAMP accumulation by fluorescence based analysis
Sequence (P32245 whole entry): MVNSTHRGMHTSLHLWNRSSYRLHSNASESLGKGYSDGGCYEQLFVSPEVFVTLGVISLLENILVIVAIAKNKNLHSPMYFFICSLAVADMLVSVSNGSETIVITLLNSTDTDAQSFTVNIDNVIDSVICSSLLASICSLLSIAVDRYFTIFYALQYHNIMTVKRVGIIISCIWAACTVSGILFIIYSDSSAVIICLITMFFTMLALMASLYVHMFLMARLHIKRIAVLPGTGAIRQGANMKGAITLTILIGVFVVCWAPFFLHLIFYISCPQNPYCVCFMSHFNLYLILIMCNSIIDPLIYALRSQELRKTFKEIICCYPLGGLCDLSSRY
pEC50: −log10 of the molar value.
assayMetric: pEC50

[
  {
    "smilesStr": "CCCC[C@H](NC(C)=O)C(=O)N[C@@H]1C(=O)N[C@@H](Cc2c[nH]cn2)C(=O)N[C@H](Cc2ccccc2)C(=O)N[C@@H](CCCNC(=N)N)C(=O)N[C@@H](Cc2c[nH]c3ccccc23)C(=O)N[C@H](C(N)=O)CSCc2cccc(c2)CSC1(C)C",
    "ltGtEq": "=",
    "numericValue": 6.21
  },
  {
    "smilesStr": "CCCC[C@H](NC(C)=O)C(=O)N[C@H]1CSCc2ccccc2CSC(C)(C)[C@@H](C(N)=O)NC(=O)[C@H](Cc2c[nH]c3ccccc23)NC(=O)[C@H](CCCNC(=N)N)NC(=O)[C@@H](Cc2ccccc2)NC(=O)[C@H](Cc2c[nH]cn2)NC1=O",
    "ltGtEq": "<",
    "numericValue": 6.00
  },
  {
    "smilesStr": "CCCC[C@H](NC(C)=O)C(=O)N[C@H]1CSCc2ccc(cc2)CSC(C)(C)[C@@H](C(N)=O)NC(=O)[C@H](Cc2c[nH]c3ccccc23)NC(=O)[C@H](CCCNC(=N)N)NC(=O)[C@@H](Cc2ccccc2)NC(=O)[C@H](Cc2c[nH]cn2)NC1=O",
    "ltGtEq": "=",
    "numericValue": 6.66
  },
  {
    "smilesStr": "CCCC[C@H](NC(C)=O)C(=O)N[C@H]1CSCc2ccccc2CSC[C@@H](C(N)=O)NC(=O)[C@H](Cc2c[nH]c3ccccc23)NC(=O)[C@H](CCCNC(=N)N)NC(=O)[C@@H](Cc2ccccc2)NC(=O)[C@H](Cc2c[nH]cn2)NC1=O",
    "ltGtEq": "=",
    "numericValue": 6.44
  }
]

====

Listing of recorded pEC50 by entry.
target: Melanocyte-stimulating hormone receptor (Homo sapiens, UniProt Q01726); assay: Agonist activity at human MC1R expressed in HEK293 cells assessed as maximal intracellular cAMP accumulation by fluorescence based analysis
Sequence (Q01726 whole entry): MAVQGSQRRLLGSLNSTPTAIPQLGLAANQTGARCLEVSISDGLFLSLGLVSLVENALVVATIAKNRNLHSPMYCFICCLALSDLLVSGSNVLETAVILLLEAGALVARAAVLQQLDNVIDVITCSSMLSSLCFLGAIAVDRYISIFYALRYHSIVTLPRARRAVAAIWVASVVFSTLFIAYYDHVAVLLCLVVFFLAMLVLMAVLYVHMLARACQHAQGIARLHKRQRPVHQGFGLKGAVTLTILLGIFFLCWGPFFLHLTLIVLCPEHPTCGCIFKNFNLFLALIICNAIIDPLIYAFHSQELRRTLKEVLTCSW
pEC50: −log10 of the molar value.
assayMetric: pEC50

[
  {
    "smilesStr": "CCCC[C@H](NC(C)=O)C(=O)N[C@H]1CSCc2cccc(c2)CSC(C)(C)[C@@H](C(N)=O)NC(=O)[C@H](Cc2c[nH]c3ccccc23)NC(=O)[C@H](CCCNC(=N)N)NC(=O)[C@@H](Cc2ccccc2)NC(=O)[C@H](Cc2c[nH]cn2)NC1=O",
    "numericValue": 8.19
  },
  {
    "smilesStr": "CCCC[C@H](NC(C)=O)C(=O)N[C@H]1CSCc2ccccc2CSC(C)(C)[C@@H](C(N)=O)NC(=O)[C@H](Cc2c[nH]c3ccccc23)NC(=O)[C@H](CCCNC(=N)N)NC(=O)[C@@H](Cc2ccccc2)NC(=O)[C@H](Cc2c[nH]cn2)NC1=O",
    "numericValue": 8.21
  },
  {
    "smilesStr": "CCCC[C@H](NC(C)=O)C(=O)N[C@H]1CSCc2ccccc2CSC[C@@H](C(N)=O)NC(=O)[C@H](Cc2c[nH]c3ccccc23)NC(=O)[C@H](CCCNC(=N)N)NC(=O)[C@@H](Cc2ccccc2)NC(=O)[C@H](Cc2c[nH]cn2)NC1=O",
    "numericValue": 6.97
  }
]

====

Each entry below carries its reported EC50.
molecular target: Melanocortin receptor 5 (Homo sapiens); assay: Agonist activity at human MC5R expressed in HEK293 cells assessed as maximal intracellular cAMP accumulation by fluorescence based analysis
assayMetric: EC50

[
  {
    "smilesStr": "CCCC[C@H](NC(C)=O)C(=O)N[C@H]1CSCc2ccccc2CSC[C@@H](C(N)=O)NC(=O)[C@H](Cc2c[nH]c3ccccc23)NC(=O)[C@H](CCCNC(=N)N)NC(=O)[C@@H](Cc2ccccc2)NC(=O)[C@H](Cc2c[nH]cn2)NC1=O",
    "result": "> 1 µM"
  },
  {
    "smilesStr": "CCCC[C@H](NC(C)=O)C(=O)N[C@H]1CSCc2cccc(c2)CSC[C@@H](C(N)=O)NC(=O)[C@H](Cc2c[nH]c3ccccc23)NC(=O)[C@H](CCCNC(=N)N)NC(=O)[C@@H](Cc2ccccc2)NC(=O)[C@H](Cc2c[nH]cn2)NC1=O",
    "result": "> 1 µM"
  },
  {
    "smilesStr": "CCCC[C@H](NC(C)=O)C(=O)N[C@H]1CSCc2cccc(c2)CSC(C)(C)[C@@H](C(N)=O)NC(=O)[C@H](Cc2c[nH]c3ccccc23)NC(=O)[C@H](CCCNC(=N)N)NC(=O)[C@@H](Cc2ccccc2)NC(=O)[C@H](Cc2c[nH]cn2)NC1=O",
    "result": "> 1 µM"
  },
  {
    "smilesStr": "CCCC[C@H](NC(C)=O)C(=O)N[C@@H]1C(=O)N[C@@H](Cc2c[nH]cn2)C(=O)N[C@H](Cc2ccccc2)C(=O)N[C@@H](CCCNC(=N)N)C(=O)N[C@@H](Cc2c[nH]c3ccccc23)C(=O)N[C@H](C(N)=O)CSCc2cccc(c2)CSC1(C)C",
    "result": "0.126 µM"
  },
  {
    "smilesStr": "CCCC[C@H](NC(C)=O)C(=O)N[C@H]1CSCc2ccc(cc2)CSC[C@@H](C(N)=O)NC(=O)[C@H](Cc2c[nH]c3ccccc23)NC(=O)[C@H](CCCNC(=N)N)NC(=O)[C@@H](Cc2ccccc2)NC(=O)[C@H](Cc2c[nH]cn2)NC1=O",
    "result": "> 1 µM"
  },
  {
    "smilesStr": "CCCC[C@H](NC(C)=O)C(=O)N[C@H]1CSCc2ccc(cc2)CSC(C)(C)[C@@H](C(N)=O)NC(=O)[C@H](Cc2c[nH]c3ccccc23)NC(=O)[C@H](CCCNC(=N)N)NC(=O)[C@@H](Cc2ccccc2)NC(=O)[C@H](Cc2c[nH]cn2)NC1=O",
    "result": "0.048 µM"
  }
]

====

Known IC50 of a selection of molecules
molecular target: Melanocortin receptor 5 (Homo sapiens, UniProt P33032); test: Displacement of [125I]NDP-alpha-MSH from human MC5R expressed in HEK293 cells by competitive binding assay
Sequence (P33032 whole entry): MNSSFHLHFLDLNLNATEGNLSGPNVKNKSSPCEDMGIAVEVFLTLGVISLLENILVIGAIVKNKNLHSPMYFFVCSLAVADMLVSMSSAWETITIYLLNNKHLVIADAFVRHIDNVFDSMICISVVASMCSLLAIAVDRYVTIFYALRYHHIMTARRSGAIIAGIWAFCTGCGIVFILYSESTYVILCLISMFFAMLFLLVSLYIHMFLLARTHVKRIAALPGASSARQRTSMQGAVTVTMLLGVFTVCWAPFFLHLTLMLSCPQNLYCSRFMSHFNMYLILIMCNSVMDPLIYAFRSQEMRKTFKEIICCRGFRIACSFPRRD
assayMetric: IC50 (nM)

[
  {
    "smilesStr": "CCCC[C@H](NC(C)=O)C(=O)N[C@@H]1C(=O)N[C@@H](Cc2c[nH]cn2)C(=O)N[C@H](Cc2ccccc2)C(=O)N[C@@H](CCCNC(=N)N)C(=O)N[C@@H](Cc2c[nH]c3ccccc23)C(=O)N[C@H](C(N)=O)C(C)(C)SCc2cccc(c2)CSC1(C)C",
    "experimentalTarget": "Melanocortin receptor 5 (Homo sapiens, UniProt P33032)",
    "unit": "nM",
    "numericValue": 172
  },
  {
    "smilesStr": "CCCC[C@H](NC(C)=O)C(=O)N[C@@H]1C(=O)N[C@@H](Cc2c[nH]cn2)C(=O)N[C@H](Cc2ccccc2)C(=O)N[C@@H](CCCNC(=N)N)C(=O)N[C@@H](Cc2c[nH]c3ccccc23)C(=O)N[C@H](C(N)=O)CSCc2cccc(c2)CSC1(C)C",
    "experimentalTarget": "Melanocortin receptor 5 (Homo sapiens, UniProt P33032)",
    "unit": "nM",
    "numericValue": 93.5
  },
  {
    "smilesStr": "CCCC[C@H](NC(C)=O)C(=O)N[C@H]1CSCc2ccc(cc2)CSC[C@@H](C(N)=O)NC(=O)[C@H](Cc2c[nH]c3ccccc23)NC(=O)[C@H](CCCNC(=N)N)NC(=O)[C@@H](Cc2ccccc2)NC(=O)[C@H](Cc2c[nH]cn2)NC1=O",
    "experimentalTarget": "Melanocortin receptor 5 (Homo sapiens, UniProt P33032)",
    "unit": "nM",
    "numericValue": 2
  },
  {
    "smilesStr": "CCCC[C@H](NC(C)=O)C(=O)N[C@@H]1C(=O)N[C@@H](Cc2c[nH]cn2)C(=O)N[C@H](Cc2ccccc2)C(=O)N[C@@H](CCCNC(=N)N)C(=O)N[C@@H](Cc2c[nH]c3ccccc23)C(=O)N[C@H](C(N)=O)CSCc2ccc(cc2)CSC1(C)C",
    "experimentalTarget": "Melanocortin receptor 5 (Homo sapiens, UniProt P33032)",
    "unit": "nM",
    "numericValue": 422
  }
]

Reference source: ChEMBL document CHEMBL5154752
